ASSAY_METHOD_TEXT: Solubility of the compound in simulated gastric fluid without pepsin at pH 1.5 by HPLC analysis
Assay type: physicochemical
Examples of compounds with documented solubility follow.

Check out these entries, answers already filled in.
COMPOUND	solubility
Cc1c(CC(=O)OCCCO[N+](=O)[O-])cc(-c2ccc(S(C)(=O)=O)cc2)n1-c1cccc(F)c1	< 1 µM
Cc1c(C(N)C(=O)OCCCCO[N+](=O)[O-])cc(-c2ccc(S(C)(=O)=O)cc2)n1-c1ccc(F)cc1 (centres undefined)	> 200 µM
Cc1c(CC(=O)OCCO[N+](=O)[O-])cc(-c2ccc(S(C)(=O)=O)cc2)n1-c1cccc(F)c1	< 1 µM

Turning to the following compound.
Query: Requested field: solubility. Item: Cc1c(C(N)C(=O)OCCCO[N+](=O)[O-])cc(-c2ccc(S(C)(=O)=O)cc2)n1-c1ccc(F)cc1 (centres undefined)
Result: > 200 µM
